target: MMP-13 (Homo sapiens, UniProt P45452); construct: made in house; host or cells: baculovirus / insect cells; assay: In vitro MMP inhibition, IC50 determination (fluorogenic substrate I); type: biochemical; conditions: value in parenthesis; read-out: MMP-13 (IC-50)
quantity: pIC50
Numbers only, as −log10 of the molar value.

Look over these answered cases.
# compound, quantity, result_value
rows = [
    ("CCC(C)Cc1ccc(N2CCN(S(=O)(=O)C3(C(=O)NO)CCN(CCOC)CC3)CC2)cc1 (stereo not shown)", "pIC50", 8.62),
    ("O=C(NO)C1(S(=O)(=O)N2CCN(c3ccc(OC(F)(F)F)cc3)CC2)CCN(C2CC2)CC1", "pIC50", 9.30),
]

Now consider a different compound.
For MMP-13 (Homo sapiens, UniProt P45452), provide pIC50 of COCCN1CCC(C(=O)NO)(S(=O)(=O)N2CCN(c3ccc(CC(C)C)cc3)CC2)CC1 please.
8.44

###

biological target: MMP-9 (Homo sapiens, UniProt P14780); construct: made in house; host or cells: MMP-9-transfected HT1080 cells (spent media); assay: MMP-9 inhibition (in vitro Ki); type: biochemical; conditions: Table 10; read-out: MMP-9 Ki
Sequence (P14780 107-707 limits assumed): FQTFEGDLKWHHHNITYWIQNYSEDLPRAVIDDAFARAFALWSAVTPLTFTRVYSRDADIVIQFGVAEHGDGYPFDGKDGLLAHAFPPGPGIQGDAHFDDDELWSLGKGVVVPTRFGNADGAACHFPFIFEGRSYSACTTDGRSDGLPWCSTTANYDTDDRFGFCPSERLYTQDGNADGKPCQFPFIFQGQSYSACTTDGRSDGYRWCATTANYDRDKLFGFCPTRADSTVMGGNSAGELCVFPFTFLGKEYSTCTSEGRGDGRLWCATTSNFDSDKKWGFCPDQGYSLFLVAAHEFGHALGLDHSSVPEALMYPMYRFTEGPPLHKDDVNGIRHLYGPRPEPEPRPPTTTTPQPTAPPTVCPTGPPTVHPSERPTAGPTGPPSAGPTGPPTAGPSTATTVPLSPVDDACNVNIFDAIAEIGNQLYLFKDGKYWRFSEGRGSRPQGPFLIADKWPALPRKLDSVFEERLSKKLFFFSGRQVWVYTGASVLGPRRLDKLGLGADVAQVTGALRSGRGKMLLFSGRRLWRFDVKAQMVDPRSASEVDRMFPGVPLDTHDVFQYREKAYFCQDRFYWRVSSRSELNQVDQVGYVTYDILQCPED
quantity: pKi
One number for each entry, as −log10 of the molar value.

# compound, result_value
data = [
    ("COCCC(C(=O)NO)S(=O)(=O)N1CCC(Oc2ccc(SC(F)(F)F)cc2)CC1 (stereo not shown)", 9.48),
    ("COCCC(CCOC)(C(=O)NO)S(=O)(=O)N1CCC(Oc2ccc(SC(F)(F)F)cc2)CC1", 9.74),
]

Quick one: give me pKi for each item below, same order please.
1. CCC(CC)(C(=O)NO)S(=O)(=O)N1CCC(Oc2ccc(SC(F)(F)F)cc2)CC1
2. O=C(CCCCC1CCN(S(=O)(=O)C2(C(=O)NO)CCOCC2)CC1)N1CCc2ccccc21

[9.32, 6.42]

###

Provide the reported pKi of each item.
Target: MMP-1 (Homo sapiens, UniProt P03956)
Construct: made in house; host or cells: MMP-1-transfected HT-1080 cells (spent media)
Sequence (P03956 100-469): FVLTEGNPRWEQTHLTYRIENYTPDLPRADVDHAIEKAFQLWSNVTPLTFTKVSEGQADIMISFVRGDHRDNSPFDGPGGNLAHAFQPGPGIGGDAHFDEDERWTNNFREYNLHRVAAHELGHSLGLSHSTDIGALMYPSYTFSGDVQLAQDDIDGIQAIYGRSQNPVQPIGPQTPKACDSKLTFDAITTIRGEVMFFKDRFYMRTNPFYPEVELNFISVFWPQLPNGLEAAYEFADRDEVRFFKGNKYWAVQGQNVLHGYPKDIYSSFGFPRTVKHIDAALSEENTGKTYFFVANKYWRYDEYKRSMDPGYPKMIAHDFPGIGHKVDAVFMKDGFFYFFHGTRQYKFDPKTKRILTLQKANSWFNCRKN
Assay: In vitro MMP inhibition, Ki determination (fluorogenic substrate II)
Type: biochemical
Details: value outside parentheses; read-out: MMP-1 Ki
Answers are plain numbers, as −log10 of the molar value.

# molecule, pKi
measured = [
    ("O=C(NO)C1(S(=O)(=O)N2CCC(c3ccc(CCCC(F)(F)F)cn3)CC2)CCOCC1 [Example 338]", 5.01),
]

Now consider a different molecule.
For the molecule shown here, CCCCOc1ccc(C2CCN(S(=O)(=O)C3(C(=O)NO)CCOCC3)CC2)nc1 [Example 410] , give the reported pKi.
5.46

// data source = patent US20050209278A1
